# experimental-target: human renin (Homo sapiens, UniProt P00797)
# Sequence (P00797 67-406): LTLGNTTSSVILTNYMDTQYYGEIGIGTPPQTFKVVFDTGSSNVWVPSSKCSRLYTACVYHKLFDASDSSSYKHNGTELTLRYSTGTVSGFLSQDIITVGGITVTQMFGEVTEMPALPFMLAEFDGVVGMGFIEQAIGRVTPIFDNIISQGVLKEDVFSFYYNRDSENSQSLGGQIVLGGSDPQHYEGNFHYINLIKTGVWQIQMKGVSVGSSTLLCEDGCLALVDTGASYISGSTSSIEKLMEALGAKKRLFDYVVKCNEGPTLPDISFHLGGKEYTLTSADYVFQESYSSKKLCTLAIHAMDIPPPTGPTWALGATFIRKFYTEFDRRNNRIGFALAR
# test-details: in vitro human renin inhibition test (angiotensin I determined by radioimmunoassay)
# condition-context: in vitro, pH 7.4, 37° C., two hours, human plasma
assay-readout: pIC50
In simple prose, pIC50 is minus the logarithm base ten of a concentration in moles per litre.

Field request: pIC50 | item: CC(C)C[C@H](O)[C@H](O)[C@H](CC1CCCCC1)NC(=O)[C@H](C)CNC(=O)[C@H](Cc1ccccc1)OC(=O)N1CCOCC1 [Example 9] 6.68

Okay, now this molecule:
Item under review: CC(C)C[C@H](O)[C@H](O)[C@H](CC1CCCCC1)NC(=O)C(C)CNC(=O)[C@H](Cc1ccccc1)OC(=O)N1CCOCC1 (some centres unmarked) [Example 8] . Reported pIC50? 6.55
